Values were extracted from ChEMBL document CHEMBL5352453.

ASSAY_NAME: Selectivity index, ratio of CC50 for cytotoxicity against human MRC5 cells to EC50 for Trypanosoma cruzi Tulahuen CL2 amastigotes expressing beta galactosidase infected in human MRC5 cells
Format: toxicity, cell-based
DETAILS: read-out: Selectivity Index
Please respond with reported selectivity ratio for every item in the list.
One number for each entry.

* Cn1nccc1C(=O)Nc1nc2cc(CN3CCOCC3)ccc2n1CC(F)(F)F | 5
* Cn1ncc(C(=O)Nc2nc3ccc(C#N)cc3n2CC(F)(F)F)n1 | 1

Kindly review the next molecule as well.
Which measured selectivity ratio value corresponds to CCCn1c(NC(=O)Cc2ccc(F)cc2)nc2ccc(C(=O)NC)cc21 ?
1

###

What selectivity ratio was measured for each of the following?
ASSAY_NAME: Selectivity index, ratio of CC50 for cytotoxicity against human MRC5 cells to EC50 for Trypanosoma cruzi Tulahuen CL2 amastigotes expressing beta galactosidase infected in human MRC5 cells
Assay type: toxicity, cell-based
DETAILS: read-out: Selectivity Index

• CCCn1c(NC(=O)c2cccc(C(F)(F)F)n2)nc2cccnc21 = > 27
• CCCn1c(NC(=O)Cc2ccc(F)cc2)nc2ccc(C(=O)N3CCCC3)cc21 = > 8

Request the reported selectivity ratio associated with O=C(Nc1nc2cc(F)ccc2n1C1CCOCC1)c1ccc(C(F)(F)F)nc1
> 2

###

Tested on: Trypanosoma cruzi
ASSAY_NAME: Antitrypanosomal activity against Trypanosoma cruzi Tulahuen CL2 amastigotes expressing beta galactosidase infected in human MRC5 cells assessed as reduction in parasite burden using chlorophenol red beta-D-galactopyranoside as substrate and measured after 7 days by spectrophotometric analysis
Type: functional, organism-based
DETAILS: Tulahuen CL2, MRC5, 168 h
pIC50: −log10 of the molar value.
Label false if pIC50 falls below 5; label true in every other case.

- CCCn1c(NC(=O)Cc2ccc(Cl)cc2)nc2ccccc21: true
- Cn1cc(C(=O)Nc2nc3ccc(C#N)cc3n2CC(F)(F)F)cn1: false
- Cn1nccc1C(=O)Nc1nc2cccnc2n1CC(F)(F)F: true
- Cn1nccc1C(=O)Nc1nc2cc(F)cnc2n1CC(F)(F)F: true
- CS(=O)(=O)c1ccc2c(c1)nc(NC(=O)c1ccnc(C(F)(F)F)c1)n2CC(F)(F)F: true

Below: the item to evaluate.
Is pIC50 at least 5? Consider Cn1ncc(C(=O)Nc2nc3ccc(C#N)cc3n2CC(F)(F)F)n1
false

###

ASSAY_NAME: Selectivity index, ratio of CC50 for cytotoxicity against human MRC5 cells to EC50 for Trypanosoma cruzi Tulahuen CL2 amastigotes expressing beta galactosidase infected in human MRC5 cells
Type: toxicity, cell-based
DETAILS: read-out: Selectivity Index
ATTRIBUTE_MEASURED: selectivity ratio

// solved cases for selectivity ratio follow
- COc1ccc(C(=O)Nc2nc3ccc(C#N)cc3n2CC(F)(F)F)cn1: > 28
- CCCn1c(NC(=O)Cc2ccc(Cl)cc2)nc2ccc(C#N)cc21: > 3
- CC(C)(C)Cn1c(NC(=O)c2cccnc2)nc2ccc(C#N)cc21: > 7

Now for a further molecule.
What measured selectivity ratio goes with Cn1nccc1C(=O)Nc1nc2ccc(C#N)cc2n1CC(C)(C)O ?
> 5

###

Tested on: Trypanosoma cruzi
ASSAY_NAME: Antitrypanosomal activity against Trypanosoma cruzi Tulahuen CL2 amastigotes expressing beta galactosidase infected in human MRC5 cells assessed as reduction in parasite burden using chlorophenol red beta-D-galactopyranoside as substrate and measured after 7 days by spectrophotometric analysis
Assay type: functional, organism-based
DETAILS: Tulahuen CL2, MRC5, 168 h
Please respond with criterion met when measured IC50 is strictly beneath 8 µM, and with criterion not met in all other cases.

Consider the following illustrative entries.
* Cn1nccc1C(=O)Nc1nc2cc(CO)ccc2n1CC(F)(F)F | criterion not met
* CCCn1c(NC(=O)c2ccc(C(F)(F)F)nc2)nc2cccnc21 | criterion met
* CCCn1c(NC(=O)Cc2ccc(F)cc2)nc2ccc(C(=O)NCOC)cc21 | criterion not met

Below 8 µM on IC50? Entry O=C(Cc1ccc(Cl)cc1)Nc1nc2ccccc2s1
criterion not met

IC50 strictly < 8 µM for this compound? CCCn1c(NC(=O)Cc2ccc(F)cc2)nc2ccc(C(=O)NC)cc21
criterion not met

Lab note: confirm whether the reported IC50 for this compound is below 8 µM, equality not counting. compound: CC(=O)N1CCC(n2c(NC(=O)c3ccnn3C)nc3ccc(C#N)cc32)CC1
criterion not met

State whether 8 µM exceeds IC50 recorded for CCCn1c(NCc2ccc(F)cc2)nc2cc(F)ccc21 .
criterion not met

hey, is IC50 for CCCn1c(NC(=O)Nc2ccc(Cl)cc2)nc2ccccc21 lower than 8 µM or not?
criterion not met

Consider O=C(Cc1ccc(Cl)cc1)Nc1nc2ccccc2[nH]1 . Does its IC50 lie strictly below 8 µM?
criterion not met
